// reported TGI for each item listed
System: MDA-N
Experiment: NCI tumour cell line growth inhibition, 48 h

These recorded examples may help you get a feel for the data.
- MOLECULE: "O=C1NC(N/N=C\\c2ccccc2)=N/C1=C/c1ccccc1"
  MEASURED QUANTITY: "TGI"
  REPORTED MEASUREMENT: "> 100 µM"
- MOLECULE: "CC(=O)[C@H]1[C@H](O)C[C@@]2(C)[C@@H]3CCc4cc(O)c(OC5OC(CO)C(O)C(O)C5O)cc4C3(C)C(=O)C[C@]12C (stereo not given in full)"
  MEASURED QUANTITY: "TGI"
  REPORTED MEASUREMENT: "> 100 µM"
- MOLECULE: "CO/C(=N\\N=C\\c1ccc(Cl)c(Cl)c1)c1ccncc1"
  MEASURED QUANTITY: "TGI"
  REPORTED MEASUREMENT: "> 10 µM"
- MOLECULE: "O=C1NC2(CCNCC2)Oc2ccccc21"
  MEASURED QUANTITY: "TGI"
  REPORTED MEASUREMENT: "> 100 µM"
- MOLECULE: "COC(=O)C(=O)Nc1cc2c3c(c1)Oc1cccc4c1C3(C)c1c(cccc1O2)O4"
  MEASURED QUANTITY: "TGI"
  REPORTED MEASUREMENT: "> 100 µM"

### Prompt I am curious: what TGI value has been reported for `COc1cc(N(C)C)c(OC)cc1C=C1C=CC=C1` ?
### Response > 100 µM

### Prompt I'd like to know its TGI. The molecule in question is `CNC(=O)OCc1nc(SC)n(C)c1COC(=O)NC`
### Response 310 µM

### Prompt Which TGI reading was recorded for the molecule `Cc1ccc2nc(NS(=O)(=O)c3cc(C)c(Cl)cc3S)[nH]c2c1` ?
### Response > 100 µM

### Prompt // query TGI value for entry COc1cc(C2c3cc4c(cc3C(=O)C3CCC(=O)N32)OCO4)cc(OC)c1O (stereo not given)
### Response > 50 µM

### Prompt Requested field: TGI. Item: `CCOc1nc2c(N3CCCC3)nc(N3CCNCC3)nc2nc1NCc1ccccc1`
### Response 2.31 µM

###

Tested on: ACHN renal
Test: NCI tumour cell line growth inhibition, 48 h; in the data active means GI50 below about 0.43 µM; inactive means the rest
Hello, when you answer, please use one of the following outcomes: true (1) (active), false (0) (inactive)

Use these answered entries as a reference point.
- MOLECULE: "COc1ccc(C2NC(=S)NC3=C2CCOc2c3ccc3ccccc23)cc1 (centres undefined)"
  EXPERIMENTAL TARGET: "ACHN renal"
  GROUP: "false (0)"
- MOLECULE: "Cc1cc(S(N)(=O)=O)c(S/C(=N\\NS(=O)(=O)c2ccccc2)c2ccc(Cl)cc2)cc1Cl"
  EXPERIMENTAL TARGET: "ACHN renal"
  GROUP: "false (0)"
- MOLECULE: "COc1cc(NC2CCCCC2O)c2nc(-c3ccc(Cl)cc3)ccc2c1 (centres undefined)"
  EXPERIMENTAL TARGET: "ACHN renal"
  GROUP: "false (0)"

### Prompt Please indicate how the test categorized CCc1ccc2c(c1)N(CCO)C1=C(C(=O)OC1)C2c1cc(OC)c(OC)c(OC)c1 (centres undefined) .
### Response true (1)

Numbers sourced from PubChem BioAssay (NCI).
